Target: Thyrotropin-releasing hormone receptor (Homo sapiens) (UniProt P34981)
Sequence (P34981 whole entry, looked up): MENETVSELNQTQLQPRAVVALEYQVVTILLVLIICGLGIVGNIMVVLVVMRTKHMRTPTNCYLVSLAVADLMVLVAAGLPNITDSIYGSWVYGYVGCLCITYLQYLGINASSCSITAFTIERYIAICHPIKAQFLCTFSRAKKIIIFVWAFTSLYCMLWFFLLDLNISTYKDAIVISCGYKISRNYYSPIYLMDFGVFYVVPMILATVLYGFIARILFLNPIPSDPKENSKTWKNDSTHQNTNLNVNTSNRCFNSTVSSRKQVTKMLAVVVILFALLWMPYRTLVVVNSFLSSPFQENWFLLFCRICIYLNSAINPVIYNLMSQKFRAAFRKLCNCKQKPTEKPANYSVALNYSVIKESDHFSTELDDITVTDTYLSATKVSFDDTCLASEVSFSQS
Experiment: qHTS for Small Molecule Agonists and Allosteric Enhancers of Human TRH Receptor: Validation Screen for Agonists (AID 493127);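 further: intracellular calcium rise by fluo-8 fluorescence before TRH EC20 addition; 0% is about no effect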
Conditions: TRH receptor agonist cell assay; at 2 µM; stronger effect = higher value
Description: NIH Chemical Genomics Center [NCGC] NIH Molecular Libraries Probe Centers Network [MLPCN] Assay Submitter (PI): Marvin Gershengorn […] For the HTS assay freshly prepared cells are plated at a density of 2000/well in 3 ul of complete DMEM medium containing 10% serum in 1536-well plates and cultured over night at 37 C in a humidified incubator with 5% CO2. […] For the assay, assay plates were loaded into the FDSS kinetic plate reader. […]
quantity_measured: activation (%)
Numbers only, in %.

Give measured activation for every item shown.
1. C[C@@H]1O[C@@H](O[C@H]2C[C@@H](O)[C@]3(CO)[C@H]4[C@H](O)C[C@]5(C)[C@@H]([C@@H]6COC(=O)C6)CC[C@]5(O)[C@@H]4CC[C@]3(O)C2)[C@H](O)[C@H](O)[C@H]1O
2. CCCN(CCC)C(=O)Cc1c(-c2ccc(Cl)cc2)nc2c(Cl)cc(Cl)cn12
3. COc1cc(C=C(C#N)C#N)cc(O)c1O
4. CCN1C[C@]2(C)CC[C@H](O)[C@@]34[C@@H]5C[C@@H]6[C@@H](OC)C[C@@](O)(C5[C@H]6O)[C@@H](C[C@@H]23)[C@@H]14
5. CCCN1CCC[C@@H](c2cccc(C#N)c2)C1
6. CCCN1CCC[C@@H]2Cc3n[nH]cc3C[C@H]21

1.38
-11.1
2.88
0.875
1.31
1.12

List activation for every entry below, keeping the order given.
1. C#CCN(C)C(C)Cc1ccccc1 (centres undefined)
2. CCc1c(C(=O)OC)ncc2[nH]c3cc(OC)c(OC)cc3c12
3. COc1ccc2c3c1O[C@H]1C(=O)CC[C@@]4(O)C(C2)N(CC2CC2)CCC314 (some centres undefined)

1: -5.25; 2: 0.312; 3: 2.19

###

Test: qHTS Assay for Lipid Storage Modulators (AID 1519); further: on the % scale 0 is the no-effect control and ±100 the full control effect
Settings: Drosophila S3 cells, BODIPY lipid droplet/cell ratio, laser cytometry; at 57.5 µM (top of the series); cells loaded with oleic acid
Results filed as inconclusive are left out. Activity calls are given as the source filed them. The call rests on the fitted dose curve.
quantity_measured: activity change, negative = inhibition

The cases that follow already have their activity change, negative = inhibition on record.
compound=O=C(O)CNCP(=O)(O)O quantity_measured="activity change, negative = inhibition" obs_value="2.6% (inactive)"
compound="COc1cc2c(cc1O)CC1c3c(cc(O)c(OC)c3-2)CCN1C (stereo not drawn)" quantity_measured="activity change, negative = inhibition" obs_value="9.81% (inactive)"
compound=O=C1C=CC(=O)c2c(O)cccc21 quantity_measured="activity change, negative = inhibition" obs_value="10.3% (inactive)"
compound=O=C(NC(=O)c1ccccc1Cl)Nc1ccc(OC(F)(F)F)cc1 quantity_measured="activity change, negative = inhibition" obs_value="8.39% (inactive)"
compound=COC(=O)COc1ccc(Cl)cc1Cl quantity_measured="activity change, negative = inhibition" obs_value="8.24% (inactive)"
compound="CNC(Cc1c[nH]c2ccccc12)C(=O)O (stereo not drawn)" quantity_measured="activity change, negative = inhibition" obs_value="4.43% (inactive)"

Respectfully, I request activity change, negative = inhibition for each entry included below.
1. COc1c2c(cc3c1OCO3)C13C=CC(OC)CC1N(C2)CC3O (stereo not drawn)
2. O=C(c1ccncc1)N1CCC[C@@]2(CCN(Cc3nccs3)C2)C1
3. O=C1C=C2C=CC3C[C@@]2(O1)C1CCCCN31 (stereo partly drawn)
4. CC1C(=O)OC2O[C@]3(C)CC[C@H]4C(C)CCC1[C@]24OO3 (stereo partly drawn)
5. C/C=C(/C)C(=O)OC1CC[C@]2(C)C3CCC4[C@]5(O)CC(O)[C@]6(O)C(CN7CC(C)CCC7[C@]6(C)O)[C@]5(O)C[C@@]42O[C@]13O (stereo partly drawn)

11.5% (inactive)
3.49% (inactive)
4.29% (inactive)
8.3% (inactive)
5.46% (inactive)

// for each compound below, give its activity change, negative = inhibition
1. C/C=C/c1ccc2c(c1)OCO2
2. NCC#Cc1ccccc1
3. ClC1=C(Cl)C2(Cl)C3C(Cl)C=CC3C1(Cl)C2(Cl)Cl (stereo not drawn)
4. COC(=O)N1CCC2(CCCN(C)C2)CC1
5. CC(C)(O)C1C2OC(=O)C1[C@]1(O)CC3O[C@@]34C(=O)OC2[C@@]14C (stereo partly drawn)
6. CC(C)c1cc2c(c(O)c1O)[C@]1(C(=O)O)CCCC(C)(C)C1CC2 (stereo partly drawn)

1: 7.07% (inactive); 2: -4.59% (inactive); 3: 4.59% (inactive); 4: 0.789% (inactive); 5: 4.81% (inactive); 6: 4.21% (inactive)

Provide the reported activity change, negative = inhibition of each entry below, same order.
1. O=C1c2ccccc2-c2cccc3cccc1c23
2. CNC(=O)O/N=C/C(C)(C)SC
3. O=C(Oc1ccccc1)N1CCC2(CCN(Cc3ccccc3)CC2)CC1
4. CNC(=O)Oc1ccccc1OC(C)C
5. O=C(Oc1ccccc1)N1CCC2(CCCN(Cc3ccccc3)C2)CC1
6. COC1C(O)C(C)O[C@H](OC2CC[C@@]3(C=O)C4CC[C@]5(C)C(C6=CC(=O)OC6)CC[C@@]5(O)C4CC[C@@H]3C2)C1O (stereo partly drawn)
7. CC1/C=C/C=C/CC/C=C/C=C/C=C/C=C/C(OC2OC(C)C(O)C(N)C2O)CC2O[C@](O)(CC(O)C(O)CCC(O)CC(O)CC(O)CC(=O)OC(C)C(C)C1O)CC(O)C2C(=O)O (stereo partly drawn)
8. O=C(c1ccncc1)N1CCC2(CC1)CN(Cc1ccccc1)C2

1: 15.9% (inactive); 2: 7.39% (inactive); 3: 2.23% (inactive); 4: 5.74% (inactive); 5: 2.57% (inactive); 6: 3.31% (inactive); 7: 9.08% (inactive); 8: -1.45% (inactive)

Required: activity change, negative = inhibition, one value per compound below.
1. CC(CCC(=O)O)C1CCC2C3C(=O)CC4CC(=O)CC[C@@]4(C)C3CC(=O)[C@]12C (stereo partly drawn)
2. CN1CC[C@@]2(CCCN(C(=O)Oc3ccccc3)C2)C1

["1.06% (inactive)", "2.41% (inactive)"]

Provide activity change, negative = inhibition values for the following items, in order.
1. COc1cc(N)c(Cl)cc1C(=O)N[C@@H]1CN2CCC1CC2
2. COc1cc2c(c(OC)c1OC)-c1ccc(OC)c(=O)cc1C(NC(C)=O)CC2 (stereo not drawn)
3. C=C1C/C(=C/C)C(=O)O[C@@H]2CCN3CC=C(COC(=O)[C@]1(C)O)[C@@H]23

7.47% (inactive)
7.05% (inactive)
3.16% (inactive)

Parameters: items (list). Returns: activity change, negative = inhibition for each item.
1. CC(=O)CC1CCCCN1 (stereo not drawn)
2. CC(C)NC(=O)N1CCC2(CC1)CCN(C(=O)Oc1ccccc1)CC2
3. CCC(CO)NC(=O)[C@@H]1C=C2c3cccc4[nH]cc(c34)C[C@H]2N(C)C1 (stereo partly drawn)
4. CCCCC/C=C\C/C=C\C/C=C\C/C=C\CCCC(=O)O
5. C=C1C([C@@]2(C)C(OC(C)=O)CC(=O)O[C@@](C)(COC(C)=O)C2CC(=O)OC)C(OC=O)C(OC(=O)C(OC(C)=O)C(C)CC)[C@]2(C)C(c3ccoc3)CC(=O)C12O (stereo partly drawn)

4.86% (inactive)
2.9% (inactive)
0.713% (inactive)
-9.9% (inactive)
-5.86% (inactive)

For each of the compounds below, note its activity change, negative = inhibition.
1. CNC(C)[C@H](O)c1ccccc1 (stereo partly drawn)
2. O=C(Nc1cccc(F)c1)N1CCC2(CC1)CCN(C(=O)Oc1ccccc1)CC2
3. CNC(=O)Oc1ccc2c(c1)[C@@]1(C)CCN(C)C1N2C (stereo partly drawn)

1. 9.2% (inactive)
2. -7.04% (inactive)
3. 4.58% (inactive)

Hi! Can you tell me activity change, negative = inhibition for each of these compounds?
1. CC(C)CN1CCCC2(CCN(C(=O)c3ccncc3)CC2)C1
2. COc1cc2c(cc1OC)[C@@]13CCN4CC5=CCOC6CC(=O)N2C1[C@H]6[C@@H]5C[C@@H]43 (stereo partly drawn)
3. C=C1C2CCC3[C@@](CC[C@@H]4C(C(=O)O)CC(OC5OC(CO)C(OS(=O)(=O)O)C(OS(=O)(=O)O)C5OC(=O)CC(C)C)C[C@]34C)(C2)C1O (stereo partly drawn)
4. CC1=CCCC2C1(C)CCC(C)C2(C)CC/C(C)=C/C[n+]1cn(C)c2c(N)ncnc21 (stereo not drawn)
5. CCCCCCCCCc1ccc(O)cc1

1: 5.13% (inactive); 2: 14% (inactive); 3: 1.97% (inactive); 4: 6.88% (inactive); 5: 4.47% (inactive)
